B1: ESRRA (parent)
chain: LGVAQRSLPLQDELAFAEDLVLDE

- Variants of: B1
- Experiment: protein stability index of a GFP-peptide fusion (GPS, HEK-293T) (PSI 1-6); higher = more stable;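 note: lentivirally expressed fusions sorted by FACS into six bins by GFP to DsRed ratio, PSI derived from sequencing read proportions per bin multiplied by bin number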
- Recorded Conditions: c terminus: a fixed tail appended
Collected protein stability index values appear next to each entry.

Use these answered entries as a reference point.
[[record]]
mutant_label = "V3A"
quantity_measured = "protein stability index"
result = 2.92

[[record]]
mutant_label = "Q11R"
quantity_measured = "protein stability index"
result = 2.94

[[record]]
mutant_label = "L1H"
quantity_measured = "protein stability index"
result = 2.98


input: // protein stability index lookup, key: F16Y
output: 2.93

input: Recorded protein stability index of E24M , please.
output: 2.95

input: Form field: reported protein stability index of D12K
output: 2.98

input: Field request: protein stability index | item: S7I
output: 2.98

input: Quick check: protein stability index of R6S ?
output: 2.98

input: Query: protein stability index; subject: L1A
output: 2.99

input: For the variant shown here, A4N , give the reported protein stability index.
output: 2.94
